Each recorded value in this set is attributed to paper PMC3849007.

Test system: h-Tel quadruplex (Q) DNA, 5'-biotin-d[AG3(T2AG3)3] (DNA, G4) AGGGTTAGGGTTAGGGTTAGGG
procedure details: surface plasmon resonance
condition label: 200 mM KCl; 10 mM HEPES, 3 mM EDTA, 0.01% P20, pH 7.4
property name: K (M⁻¹)
Express the result in M⁻¹ but write the number alone.

chemical structure: CC[n+]1c2c3c(cc(C)cc3c3cc(F)ccc31)N(C)c1ccc(F)cc1-2
study target: h-Tel quadruplex (Q) DNA, 5'-biotin-d[AG3(T2AG3)3] (DNA, G4) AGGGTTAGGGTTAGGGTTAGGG
unit abbrev: M⁻¹
value: 600000
--
chemical structure: Cc1cc2c3c([n+](C)c4ccc(F)cc4c3c1)-c1cc(F)ccc1N2C
study target: h-Tel quadruplex (Q) DNA, 5'-biotin-d[AG3(T2AG3)3] (DNA, G4) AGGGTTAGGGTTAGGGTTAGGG
unit abbrev: M⁻¹
value: 8.3e+06
--
chemical structure: CC(=O)Nc1ccc2c3cccc4c3c([n+](C)c2c1)-c1ccccc1N4C
study target: h-Tel quadruplex (Q) DNA, 5'-biotin-d[AG3(T2AG3)3] (DNA, G4) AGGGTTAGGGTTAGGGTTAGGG
unit abbrev: M⁻¹
value: 1.5e+07

Attention now shifts to the item below.
State the recorded K for this entry: CC(=O)Nc1ccc2c(c1)c1cccc3c1c([n+]2C)-c1ccccc1N3C
8e+06

---

# inhibition at 10 µM listing for each entry below
study target: hERG (Homo sapiens)
Construct: expressed in transfected cells; host or cells: HEK293
Sequence (Q12809 whole entry): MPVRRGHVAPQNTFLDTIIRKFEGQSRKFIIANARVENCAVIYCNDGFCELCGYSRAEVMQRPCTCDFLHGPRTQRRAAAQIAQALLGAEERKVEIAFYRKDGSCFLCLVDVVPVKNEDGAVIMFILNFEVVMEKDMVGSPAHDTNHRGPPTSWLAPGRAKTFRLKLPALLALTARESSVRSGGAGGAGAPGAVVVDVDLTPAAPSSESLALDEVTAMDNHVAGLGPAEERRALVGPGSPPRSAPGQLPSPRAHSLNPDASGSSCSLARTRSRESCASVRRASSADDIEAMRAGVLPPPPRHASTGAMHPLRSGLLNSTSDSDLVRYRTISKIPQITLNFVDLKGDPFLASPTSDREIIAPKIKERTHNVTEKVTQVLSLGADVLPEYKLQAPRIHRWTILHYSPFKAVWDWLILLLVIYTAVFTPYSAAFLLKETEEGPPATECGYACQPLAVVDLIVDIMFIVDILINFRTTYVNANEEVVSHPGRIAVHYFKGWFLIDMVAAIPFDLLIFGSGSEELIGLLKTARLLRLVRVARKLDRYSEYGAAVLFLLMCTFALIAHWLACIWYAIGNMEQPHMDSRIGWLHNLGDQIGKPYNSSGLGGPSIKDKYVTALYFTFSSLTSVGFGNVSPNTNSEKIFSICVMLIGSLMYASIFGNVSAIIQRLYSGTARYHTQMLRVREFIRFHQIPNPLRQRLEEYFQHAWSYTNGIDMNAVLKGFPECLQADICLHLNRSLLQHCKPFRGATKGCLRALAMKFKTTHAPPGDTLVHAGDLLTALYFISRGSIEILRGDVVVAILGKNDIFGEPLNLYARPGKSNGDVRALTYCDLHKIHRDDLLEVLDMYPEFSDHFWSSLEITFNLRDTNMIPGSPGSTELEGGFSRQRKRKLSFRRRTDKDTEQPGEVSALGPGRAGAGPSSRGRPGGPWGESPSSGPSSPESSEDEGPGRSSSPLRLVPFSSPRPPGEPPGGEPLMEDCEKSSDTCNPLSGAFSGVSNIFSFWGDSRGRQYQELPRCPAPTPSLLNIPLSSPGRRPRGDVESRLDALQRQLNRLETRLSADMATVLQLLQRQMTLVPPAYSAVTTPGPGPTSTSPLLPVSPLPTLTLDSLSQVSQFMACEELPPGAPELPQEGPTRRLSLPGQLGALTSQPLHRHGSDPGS
procedure details: hERG tail current inhibition, patch clamp assay
Format: cell-based
condition label: human, HEK293 cells (hERG study), 10 μM, HEK293 cells, read-out: hERG % inhib. (10 μM)
Express the result in % but write the number alone.

Here are 2 molecules together with their reported answers.
chemical structure: Cc1cc2c3c([n+](C)c4ccc(F)cc4c3c1)-c1cc(F)ccc1N2C
inhibition at 10 µM, %: 100
--
chemical structure: CC(=O)Nc1ccc2c(c1)c1cccc3c1c([n+]2C)-c1ccccc1N3C
inhibition at 10 µM, %: 21

Attention now shifts to the item below.
Lab request: please report inhibition at 10 µM under test system hERG (Homo sapiens) for CC[n+]1c2c3c(cc(C)cc3c3cc(F)ccc31)N(C)c1ccc(F)cc1-2
18
